Target: T1, human amylin-3(a) receptor (human, UniProt P30988 25-474; O60896 24-148)
T1 sequence (looked up) 1: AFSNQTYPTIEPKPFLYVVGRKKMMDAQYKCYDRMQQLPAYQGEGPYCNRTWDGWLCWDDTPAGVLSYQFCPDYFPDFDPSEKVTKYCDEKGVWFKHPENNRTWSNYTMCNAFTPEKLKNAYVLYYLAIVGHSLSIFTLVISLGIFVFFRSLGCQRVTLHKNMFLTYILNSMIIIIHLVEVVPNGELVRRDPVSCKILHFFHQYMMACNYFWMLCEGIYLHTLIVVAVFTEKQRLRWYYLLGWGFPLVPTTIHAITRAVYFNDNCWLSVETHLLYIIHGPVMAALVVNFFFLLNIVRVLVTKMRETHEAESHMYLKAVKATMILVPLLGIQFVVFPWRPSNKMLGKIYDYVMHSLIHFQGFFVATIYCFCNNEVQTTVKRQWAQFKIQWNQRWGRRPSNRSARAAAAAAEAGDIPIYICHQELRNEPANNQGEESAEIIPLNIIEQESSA
T1 sequence (looked up) 2: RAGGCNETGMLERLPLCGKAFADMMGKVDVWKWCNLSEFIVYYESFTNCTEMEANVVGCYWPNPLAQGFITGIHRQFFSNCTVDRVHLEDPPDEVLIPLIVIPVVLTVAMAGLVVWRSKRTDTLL
Test: cell-based or functional assay
Square brackets hold non-standard residues; d marks the D form. Chem. 28 = not defined here; Aib = CC(C)(N)C(=O)O
The following binders are shown together with reported hAMYR3 Potency, no HSA, EC50 [pM] values.
Return type: number; implicit unit pM.

Binder | hAMYR3 Potency, no HSA, EC50 [pM] (pM)
Compound 39 (reading uncertain) peptide: Y[Aib]EGTFTSDYSILLEEQAAREFIEWLLAGGPSK(Chem. 28)GGQEPGQEPGEASHLSTAQTQRLSAELHELATLPRTETGSGSP-NH2 | 5.75

q: Fill in the blank: the reported hAMYR3 Potency, no HSA, EC50 [pM] of Compound 106 (reading uncertain) peptide: H[Aib]HGTFTSDYSILLEEQAAREFIEWLLAGGPSSGALQAPGQAPGASHLSTAQTARLSAELHRLK(Chem. 28)TLPRTETGSGSP-NH2 is ____.
a: 2.07

q: Fill in the blank: the reported hAMYR3 Potency, no HSA, EC50 [pM] of Compound 38 (reading uncertain) peptide: Y[Aib]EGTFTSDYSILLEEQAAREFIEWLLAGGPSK(Chem. 28)GGQAPGQAPGEASHLSTAQTQRLSAELHELATLPRTETGSGSP-NH2 is ____.
a: 3.63

q: Fill in the blank: the reported hAMYR3 Potency, no HSA, EC50 [pM] of Compound 103 (reading uncertain) peptide: H[Aib]HGTFTSDYSILLEEQAAREFIEWLLAGGPSSGAGQAPGQAPGASHLSTAQTARLSAELHK(Chem. 28)LATLPRTETGSGSP-NH2 is ____.
a: 2.42
